Origin of the recorded values: ChEMBL document CHEMBL5512689

Each entry below carries its reported Kp uu.
experiment: Drug penetration in rat assessed as Unbound brain-to-plasma concentration ratio; format: ADME, cell-free; details: read-out: K(p,uu,brain)
MEASURE: Kp uu

SMI | MEASURE | MEASURED RESULT
Cc1cn(-c2ccc3n(c2=O)CCN([C@@H](C)[C@@H]2CC[C@H](c4cc(F)c(Cl)cc4C(F)(F)F)O2)C3=O)cn1 | Kp uu | 0.7
Cc1cn(-c2ccc3n(c2=O)CCN([C@@H](C)[C@@H]2CC[C@H](c4ccc(Cl)cc4C(F)(F)F)O2)C3=O)cn1 | Kp uu | 0.5
Cc1cn(-c2ccc3n(c2=O)CCN([C@@H](C)[C@@H]2CC[C@H](c4ccc(C(F)(F)F)cc4)O2)C3=O)cn1 | Kp uu | 0.5
Cc1cn(-c2ccc3n(c2=O)CCN([C@@H](C)[C@@H]2CC[C@H](c4cc(F)c(C(F)(F)F)c(F)c4)O2)C3=O)cn1 | Kp uu | 0.08
Cc1cn(-c2ccc3n(c2=O)CCN([C@@H](C)[C@@H]2CC[C@H](c4ccc(C(F)(F)F)c(F)c4F)O2)C3=O)cn1 | Kp uu | 0.5
